- System tested: potassium ion channel hERG (Homo sapiens, UniProt Q12809)
- Sequence (Q12809 whole entry): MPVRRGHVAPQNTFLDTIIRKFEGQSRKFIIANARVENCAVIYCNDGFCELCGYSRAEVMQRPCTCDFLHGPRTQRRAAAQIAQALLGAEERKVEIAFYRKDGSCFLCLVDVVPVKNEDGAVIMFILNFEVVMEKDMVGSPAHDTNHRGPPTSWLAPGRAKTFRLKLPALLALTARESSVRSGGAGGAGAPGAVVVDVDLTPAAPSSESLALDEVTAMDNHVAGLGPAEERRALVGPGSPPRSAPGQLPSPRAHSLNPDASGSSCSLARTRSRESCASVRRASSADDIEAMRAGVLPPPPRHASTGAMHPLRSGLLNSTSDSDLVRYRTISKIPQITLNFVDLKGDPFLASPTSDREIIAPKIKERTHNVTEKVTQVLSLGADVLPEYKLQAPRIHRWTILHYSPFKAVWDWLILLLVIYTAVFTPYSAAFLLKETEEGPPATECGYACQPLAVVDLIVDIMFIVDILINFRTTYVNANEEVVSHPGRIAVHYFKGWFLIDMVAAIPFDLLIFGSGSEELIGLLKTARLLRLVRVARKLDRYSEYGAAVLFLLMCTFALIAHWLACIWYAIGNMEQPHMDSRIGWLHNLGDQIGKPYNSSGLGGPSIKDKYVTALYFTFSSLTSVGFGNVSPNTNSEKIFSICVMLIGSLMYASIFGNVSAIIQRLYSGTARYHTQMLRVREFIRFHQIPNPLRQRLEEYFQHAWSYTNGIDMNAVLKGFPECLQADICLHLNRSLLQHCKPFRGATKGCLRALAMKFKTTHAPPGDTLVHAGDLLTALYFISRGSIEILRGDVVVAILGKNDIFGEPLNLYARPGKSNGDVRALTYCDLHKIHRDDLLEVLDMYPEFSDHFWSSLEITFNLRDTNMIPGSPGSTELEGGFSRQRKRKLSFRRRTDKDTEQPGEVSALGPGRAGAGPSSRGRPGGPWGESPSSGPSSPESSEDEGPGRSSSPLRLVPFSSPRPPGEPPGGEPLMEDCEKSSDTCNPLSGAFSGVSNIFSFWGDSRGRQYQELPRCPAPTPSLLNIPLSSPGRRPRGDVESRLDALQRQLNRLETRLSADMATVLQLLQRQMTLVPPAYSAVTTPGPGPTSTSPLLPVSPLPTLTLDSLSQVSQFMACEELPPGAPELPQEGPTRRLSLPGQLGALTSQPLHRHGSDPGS
- Method summary: Assay 5 hERG assay (patch clamp, CHO cells over-expressing hERG)
- Applied conditions: SyncroPatch 384PE, room temperature, geometric mean, read-out: Assay 5 (hERG Hu CHO if EPh CR-Syncro) GMean IC50
pIC50: −log10 of the molar value.
Readout label: pIC50

// lookup pIC50 for O=C(NCC(F)F)c1cnc(N[C@H]2CC[C@H](Nc3ccc(-n4ccccc4=O)cn3)C2)nn1 < 4.40

Consider the compound shown here: Cc1cnc(N[C@H]2CC[C@H](Nc3ccc(-n4cc(C#N)ccc4=O)cn3)C2)nn1 What is its recorded pIC50? < 4.40

What pIC50 value was documented for this compound, NC(=O)CNC(=O)c1cnc(N[C@H]2CC[C@H](Nc3ccc(-n4ccccc4=O)cn3)C2)nn1 ? < 4.40

Field request: pIC50 | item: COc1cccc(-c2ccc(N[C@H]3CC[C@H](Nc4ncc(C)nn4)C3)nc2)n1 5.49

What measured pIC50 goes with Cc1nnc(N[C@H]2CC[C@H](Nc3ccc(-n4ccccc4=O)cn3)C2)nc1C ? < 4.40

Form field: reported pIC50 of Cc1cnc(N[C@H]2CC[C@H](Nc3ccc(-n4cccc(C)c4=O)cn3)C2)nn1 [Example 131] < 4.14

Please look up its pIC50: Cc1cnc(N[C@H]2CC[C@H](Nc3ccc(-n4cc5ccccc5n4)cn3)C2)nn1 5.38

Dear colleague, I am looking for the recorded pIC50 of the following compound: COc1cccn(-c2ccc(N[C@H]3CC[C@H](Nc4ncc(C(=O)NC5COC5)nn4)C3)nc2)c1=O < 4.40

These entries and their values trace back to patent US20240228469A1.
